Exercise: state measured log10 IC50 for each of the compounds provided.
# test_system: L-lactate dehydrogenase A chain (Homo sapiens, UniProt P00338)
# assay: Inhibition of LDHA in human A673 cells assessed as decrease in lactate production incubated for 2 hrs by lactate oxidase-coupled fluorescence based assay
# Type: cell-based
Recall that a logarithmic scale is used here: each number is log10 of IC50 in nM.

# log10 IC50 (compound: C#Cc1cc(-c2nn(-c3nc(C(=O)O)cs3)c(CC3CC3)c2Cc2ccc(S(N)(=O)=O)c(F)c2)ccc1F ) is 2.96

# log10 IC50 (compound: NS(=O)(=O)c1ccc(Cc2c(-c3cccc(-c4ccccc4)c3)nn(-c3nc(C(=O)O)cs3)c2CCC2CC2)cc1 ) is 2.71

# log10 IC50 (compound: NS(=O)(=O)c1ccc(Cc2c(-c3ccc(F)c(C#CC(F)F)c3)nn(-c3nc(C(=O)O)cs3)c2CC2CC2)cc1F ) is 2.97

# log10 IC50 (compound: Cc1cc(C#Cc2cccc(-c3nn(-c4nc(C(=O)O)cs4)c(CC4CC4)c3Cc3ccc(S(N)(=O)=O)c(F)c3)c2)cs1 ) is 2.69

# log10 IC50 (compound: Cc1cnc(C#Cc2cccc(-c3nn(-c4nc(C(=O)O)cs4)c(CCC4CC4)c3Cc3ccc(S(N)(=O)=O)c(F)c3)c2)s1 ) is 2.56

# log10 IC50 (compound: NS(=O)(=O)c1ccc(Cc2c(-c3cccc(-c4ccccc4)c3)nn(-c3nc(C(=O)O)cs3)c2C2(C(F)(F)F)CC2)cc1 ) is 4.31

# log10 IC50 (compound: NS(=O)(=O)c1ccc(Cc2c(-c3cccc(C#Cc4ccc(C(F)(F)F)s4)c3)nn(-c3nc(C(=O)O)cs3)c2CC2CC2)cc1F ) is 2.69
